# Tested on: redroot pigweed
# assay comment: Test Example 2: soil application on the day after sowing, growth inhibition rate, redroot pigweed
# Format: in vivo, Amaranthus retroflexus L.
# applied conditions: 250 g/ha active ingredient, observed on 19th to 24th day
experimental endpoint: Growth inhibition rate (%) redroot pigweed

{"columns": ["molecule", "value reported"],
 "data": [
  ["CCSC(=O)Oc1c(C(=O)c2ccc(S(C)(=O)=O)c(COC3CCOC3)c2C)cnn1C (centres unmarked)", 90],
  ["CCC(C)SC(=O)Oc1c(C(=O)c2ccc(S(C)(=O)=O)c(C(=O)OC)c2C)cnn1C (centres unmarked)", 100],
  ["COC(=O)c1c(S(C)(=O)=O)ccc(C(=O)c2cnn(C)c2OC(=O)SC(C)(C)C)c1C", 100],
  ["CCSC(=O)Oc1c(C(=O)c2ccc(S(C)(=O)=O)c(OCCCOC)c2C)cnn1C", 100],
  ["CCn1ncc(C(=O)c2ccc(S(C)(=O)=O)c(OCCOC)c2C)c1OC(=O)SC", 100],
  ["CCOC(=O)c1c(S(C)(=O)=O)ccc(C(=O)c2cnn(CC)c2OC(=O)SC)c1C", 100],
  ["CCOC(=O)COc1c(S(C)(=O)=O)ccc(C(=O)c2cnn(C)c2OC(=O)SCC)c1C", 20],
  ["CCSC(=O)Oc1c(C(=O)c2ccc(S(C)(=O)=O)c(OCC3CCCO3)c2C)cnn1C (centres unmarked)", 100]
]}
